Target or system: T1, monomeric human CTLA-4 (human, UniProt P16410 36-161, limits assumed)
T1 construct: Soluble monomeric analyte in SPR; also called huCTLA-4
T1 sequence: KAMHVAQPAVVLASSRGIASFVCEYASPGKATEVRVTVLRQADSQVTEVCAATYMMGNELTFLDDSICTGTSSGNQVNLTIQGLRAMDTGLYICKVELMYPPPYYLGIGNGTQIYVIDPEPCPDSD
Test description: SPR, captured Fab, pH 6.0
Measurement name: kon (M⁻¹ s⁻¹)
Numeric answer only, unit M⁻¹ s⁻¹ assumed.

Sample records with kon:
Binder	kon (M⁻¹ s⁻¹)
ipi.90 Fab (Fab, V domains shown, Tested as monovalent Fab) VH: QVQLVESGGGVVQPGRSLRLSCAASGFTFSHYTMHWVRQAPGKGLEWVTFISYDGNNKYYADSVKGRFTISRDNSKNTLYLQMNSLRAEDTAIYYCARHGWLGPFDYWGQGTLVTVSS VL: EIVLTQSPGTLSLSPGERATLSCRASQEVGDSELAWYQQKPGQAPRLLIYGAFSRATGIPDRFSGSGSGTDFTLTISRLEPEDFAVYYCQQYGSSPWTFGQGTKVEIKR	1.9e+06
ipi.94 Fab (Fab, V domains shown, Tested as monovalent Fab) VH: QVQLVESGGGVVQPGRSLRLSCAASGFTFSHYTMHWVRQAPGKGLEWVTFISYDGNNKYYADSVKGRFTISRDNSKNTLYLQMNSLRAEDTAIYYCARTGWLGPFDYWGQGTLVTVSS VL: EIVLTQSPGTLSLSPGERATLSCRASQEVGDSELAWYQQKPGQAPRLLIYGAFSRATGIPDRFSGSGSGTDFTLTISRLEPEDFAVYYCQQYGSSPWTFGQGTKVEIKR	1.9e+06

Next up:
# input Recorded kon of ipi.93 Fab (Fab, V domains shown, Tested as monovalent Fab) VH: QVQLVESGGGVVQPGRSLRLSCAASGFTFSSYTMHWVRQAPGKGLEWVTFISYDGNNKYYADSVKGRFTISRDNSKNTLYLQMNSLRAEDTAIYYCARTGWLGPFDYWGQGTLVTVSS VL: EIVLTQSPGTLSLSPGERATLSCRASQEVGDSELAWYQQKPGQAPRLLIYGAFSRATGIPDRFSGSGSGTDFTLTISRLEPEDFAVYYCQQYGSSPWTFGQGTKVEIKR , please.
# output 1.7e+06
